- Species: Rattus norvegicus
- testProtocol: Antihyperalgesic effect in the carrageenan induced thermal hyperalgesia model
- Assay type: functional

structureNotation: CN(Cc1ccccc1)c1c(N)ncnc1C#Cc1ccc(N2CCOCC2)nc1
readingUnit: µmol/kg
comparator: =
ED50: 10
//
structureNotation: Nc1ncnc(C#Cc2ccc(N3CCOCC3)nc2)c1CCCc1ccncc1
readingUnit: µmol/kg
comparator: =
ED50: 46
//
structureNotation: CN(Cc1ccccc1Cl)c1c(N)ncnc1C#Cc1ccc(N2CCOCC2)nc1
readingUnit: µmol/kg
comparator: =
ED50: 3
//
structureNotation: COc1ccc(CCCc2c(N)ncnc2C#Cc2ccc(N3CCOCC3)nc2)cc1
readingUnit: µmol/kg
comparator: >
ED50: 30
//
structureNotation: Nc1ncnc(C#Cc2ccc(N3CCOCC3)nc2)c1CCCc1ccccc1
readingUnit: µmol/kg
comparator: >
ED50: 30
//
structureNotation: CN(Cc1ccccc1Cl)Cc1c(N)ncnc1C#Cc1ccc(N2CCOCC2)nc1
readingUnit: µmol/kg
comparator: >
ED50: 30
//
structureNotation: CN(Cc1ccccc1)Cc1c(N)ncnc1C#Cc1ccc(N2CCOCC2)nc1
readingUnit: µmol/kg
comparator: =
ED50: 5
